- system-under-test: CYP2D6 (Homo sapiens (Human), UniProt P10635)
- Sequence (P10635 whole entry): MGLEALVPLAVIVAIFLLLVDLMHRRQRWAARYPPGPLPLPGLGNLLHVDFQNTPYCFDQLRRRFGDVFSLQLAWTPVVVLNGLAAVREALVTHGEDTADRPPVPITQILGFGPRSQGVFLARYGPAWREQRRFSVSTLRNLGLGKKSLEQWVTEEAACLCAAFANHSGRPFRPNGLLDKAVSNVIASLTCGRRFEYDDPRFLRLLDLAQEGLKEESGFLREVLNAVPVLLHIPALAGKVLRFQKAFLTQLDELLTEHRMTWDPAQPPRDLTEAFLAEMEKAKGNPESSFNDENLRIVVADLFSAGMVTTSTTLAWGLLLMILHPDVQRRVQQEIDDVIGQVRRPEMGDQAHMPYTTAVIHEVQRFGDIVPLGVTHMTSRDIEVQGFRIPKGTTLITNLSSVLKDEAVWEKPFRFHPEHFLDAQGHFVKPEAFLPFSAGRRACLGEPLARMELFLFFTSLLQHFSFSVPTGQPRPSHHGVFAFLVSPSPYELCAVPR
- test-name: Cytochrome P450 inhibition assay, recombinant CYP2D6 (MAMC substrate)
- Assay type: in vitro ADME
- condition-parameters: recombinant enzyme
The following molecules are shown together with reported pIC50 values.
Remember the convention: pIC50 equals -log10 of concentration in molar.

Worked cases, answers included:
{"molecule": "CNC[C@H](c1ccc(Cl)c(Cl)c1)[C@@H](O)c1cccc(I)c1", "number": 7.09}
{"molecule": "CNC[C@H](c1ccc2ccccc2c1)[C@@H](O)c1cc(F)cc(F)c1", "number": 6.43}
{"molecule": "CNC[C@H](c1ccc2ccccc2c1)[C@H](O)c1ccc(Cl)s1 (single isomer, unassigned)", "number": 6.92}

Query: // output pIC50; input CNC[C@@H](c1ccc(Cl)c(Cl)c1)[C@@H](O)c1cccc(Br)c1 ; system CYP2D6 (Homo sapiens (Human), UniProt P10635)
Reply: 6.10

----------
Measured IC50 accompanies every entry in the list below.
- system-under-test: CYP3A4 (Homo sapiens (Human), UniProt P08684)
- Sequence (P08684 whole entry): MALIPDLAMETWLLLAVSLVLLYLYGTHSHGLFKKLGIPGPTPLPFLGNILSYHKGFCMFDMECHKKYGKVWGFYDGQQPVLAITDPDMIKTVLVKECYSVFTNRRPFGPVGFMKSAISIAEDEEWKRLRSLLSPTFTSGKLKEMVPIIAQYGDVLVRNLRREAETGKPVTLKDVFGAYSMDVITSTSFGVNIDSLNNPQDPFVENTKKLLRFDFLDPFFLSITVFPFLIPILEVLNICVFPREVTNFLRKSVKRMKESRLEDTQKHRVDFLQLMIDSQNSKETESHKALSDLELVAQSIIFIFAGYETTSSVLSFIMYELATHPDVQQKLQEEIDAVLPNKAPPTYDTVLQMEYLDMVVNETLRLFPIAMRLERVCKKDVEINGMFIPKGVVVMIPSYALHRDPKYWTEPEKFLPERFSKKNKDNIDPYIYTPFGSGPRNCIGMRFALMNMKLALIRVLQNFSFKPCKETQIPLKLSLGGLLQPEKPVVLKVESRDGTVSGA
- test-name: Cytochrome P450 inhibition assay, recombinant CYP3A4 (BFC substrate)
- Type: in vitro ADME
- condition-parameters: recombinant enzyme
Give a bare numeral; the unit µM is implied.

{"substance-smiles": "CNC[C@H](c1ccc2ccccc2c1)[C@@H](O)c1ccccc1F", "system-under-test": "CYP3A4 (Homo sapiens (Human), UniProt P08684)", "result-units": "µM", "IC50": 20}
{"substance-smiles": "CNC[C@H](c1ccc(Cl)c(Cl)c1)[C@H](O)c1cncc(OC)c1", "system-under-test": "CYP3A4 (Homo sapiens (Human), UniProt P08684)", "result-units": "µM", "IC50": 0.24}
{"substance-smiles": "CNC[C@H](c1ccc2ccccc2c1)[C@H](O)c1ccc(Cl)nc1", "system-under-test": "CYP3A4 (Homo sapiens (Human), UniProt P08684)", "result-units": "µM", "IC50": 20}

In the following, a different compound is considered.
Query: Please look at CNC[C@H](c1ccc(Cl)c(Cl)c1)[C@@H](O)c1cccnc1OC and tell me its recorded IC50 on CYP3A4 (Homo sapiens (Human), UniProt P08684).
Reply: 0.27

----------
- system-under-test: hERG (Homo sapiens (Human))
- Sequence (Q12809 whole entry): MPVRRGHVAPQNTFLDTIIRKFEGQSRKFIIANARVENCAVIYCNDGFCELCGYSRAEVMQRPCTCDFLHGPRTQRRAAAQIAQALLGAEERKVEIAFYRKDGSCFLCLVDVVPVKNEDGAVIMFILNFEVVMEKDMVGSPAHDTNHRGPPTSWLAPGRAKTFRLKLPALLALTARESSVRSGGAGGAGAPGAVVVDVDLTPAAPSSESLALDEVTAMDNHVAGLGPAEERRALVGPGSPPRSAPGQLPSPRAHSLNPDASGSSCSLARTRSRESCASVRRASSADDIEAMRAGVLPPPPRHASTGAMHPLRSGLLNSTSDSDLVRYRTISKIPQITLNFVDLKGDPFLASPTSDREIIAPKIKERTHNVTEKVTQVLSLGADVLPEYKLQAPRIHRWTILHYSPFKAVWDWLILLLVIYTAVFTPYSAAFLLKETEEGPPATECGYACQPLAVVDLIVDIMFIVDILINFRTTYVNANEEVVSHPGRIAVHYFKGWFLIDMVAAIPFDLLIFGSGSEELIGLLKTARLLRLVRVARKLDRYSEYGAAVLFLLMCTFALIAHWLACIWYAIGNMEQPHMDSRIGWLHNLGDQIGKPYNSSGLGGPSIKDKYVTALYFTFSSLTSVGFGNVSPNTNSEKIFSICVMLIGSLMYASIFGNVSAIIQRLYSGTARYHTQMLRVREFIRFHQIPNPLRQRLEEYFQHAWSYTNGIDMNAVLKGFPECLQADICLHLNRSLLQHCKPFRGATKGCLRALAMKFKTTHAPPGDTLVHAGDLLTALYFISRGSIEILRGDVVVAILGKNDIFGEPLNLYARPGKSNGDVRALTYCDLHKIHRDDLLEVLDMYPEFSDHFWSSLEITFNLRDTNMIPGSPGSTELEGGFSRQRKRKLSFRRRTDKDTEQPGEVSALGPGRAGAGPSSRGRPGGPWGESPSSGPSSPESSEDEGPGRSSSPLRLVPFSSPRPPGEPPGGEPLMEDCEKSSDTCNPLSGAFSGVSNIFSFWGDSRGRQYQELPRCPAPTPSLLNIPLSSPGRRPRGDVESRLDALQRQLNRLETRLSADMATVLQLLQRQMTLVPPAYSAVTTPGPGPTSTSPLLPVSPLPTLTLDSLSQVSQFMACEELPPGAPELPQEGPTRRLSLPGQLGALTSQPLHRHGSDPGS
- test-name: Human ERG (hERG) assay, hERG currents in hERG-expressing CHO cells
- Format: cell-based
- condition-parameters: hERG-expressing CHO cells
quantity-measured: IC50 (µM)
Only the number, expressed in µM, is required.

Use these answered entries as a reference point.
{"compound": "CNC[C@H](c1ccc2ccccc2c1)[C@H](OCC(N)=O)c1ccccc1 [Compound 3]", "IC50 / µM": 33}
{"compound": "CNC[C@H](c1ccc2ccccc2c1)[C@H](O)c1ccc2c(c1)OCCO2 [Compound 143]", "IC50 / µM": 15}
{"compound": "CNC[C@H](c1ccc(Br)c(Cl)c1)[C@H](O)c1ccccc1 (racemic) [Compound 43]", "IC50 / µM": 7.1}

Query: # return recorded IC50 for input CNC[C@H](c1ccc2ccccc2c1)[C@H](N)c1ccccc1 [Compound 87]
Reply: 17

----------
Recorded Ki by entry
- system-under-test: human norepinephrine transporter (Homo sapiens (Human))
- Sequence (P23975 whole entry): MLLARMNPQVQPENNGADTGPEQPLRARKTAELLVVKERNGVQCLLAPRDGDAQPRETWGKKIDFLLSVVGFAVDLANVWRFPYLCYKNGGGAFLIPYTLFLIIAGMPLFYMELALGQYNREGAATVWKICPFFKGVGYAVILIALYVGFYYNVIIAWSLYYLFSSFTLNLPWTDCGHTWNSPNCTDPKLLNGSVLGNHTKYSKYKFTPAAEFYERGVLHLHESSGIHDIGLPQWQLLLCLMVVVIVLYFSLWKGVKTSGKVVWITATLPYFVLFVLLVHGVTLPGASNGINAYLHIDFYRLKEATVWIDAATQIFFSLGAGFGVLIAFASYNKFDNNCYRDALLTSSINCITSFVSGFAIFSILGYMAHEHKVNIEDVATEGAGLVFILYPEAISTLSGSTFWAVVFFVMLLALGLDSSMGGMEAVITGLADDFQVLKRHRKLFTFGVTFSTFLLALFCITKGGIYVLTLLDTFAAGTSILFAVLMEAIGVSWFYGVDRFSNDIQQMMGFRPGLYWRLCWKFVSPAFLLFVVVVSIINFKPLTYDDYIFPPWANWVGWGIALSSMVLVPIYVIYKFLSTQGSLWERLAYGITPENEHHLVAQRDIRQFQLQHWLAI
- test-name: Human NET (norepinephrine transporter) uptake assay
- Format: cell-based
- condition-parameters: read-out: hNET Ki
Dear colleague, please return just the value in nM, with no unit written.

Example compounds with recorded Ki:
{"compound": "CNC[C@@H](c1ccc(Cl)c(Cl)c1)[C@@H](O)c1cccc(SC)c1 [Compound 120]", "system-under-test": "human norepinephrine transporter (Homo sapiens (Human))", "Ki [nM]": 262}
{"compound": "CN(C)C[C@H](c1ccc(Cl)c(Cl)c1)[C@H](O)c1ccccc1 (racemic) [Compound 105]", "system-under-test": "human norepinephrine transporter (Homo sapiens (Human))", "Ki [nM]": 64.6}
{"compound": "CN1C[C@H](c2ccc3ccccc3c2)[C@@H](c2ccccc2)OCC1=O [Compound 129]", "system-under-test": "human norepinephrine transporter (Homo sapiens (Human))", "Ki [nM]": 3670}

Query: Please supply the value of reported Ki for the item CNCC(Cc1cccnc1)c1ccc2ccccc2c1 (centres unmarked) [Compound 74]
Reply: 10.3

Query: Using the record for CNC[C@@H](c1ccc(Cl)c(Cl)c1)[C@@H](O)c1ccccc1 [Compound 114] , state its measured Ki.
Reply: 171
